Where do the numbers come from? From PubChem BioAssay (NCATS).

target: Cytochrome P450 2D6 (Homo sapiens); experiment: Cytochrome P450 family 2 subfamily D member 6 (CYP2D6) small molecule antagonists: luciferase biochemical (cell-free) qHTS assay (AID 1645840); details: P450-Glo CYP2D6 enzyme, luciferin luminescence, 1 h; series mostly up to 57.4 µM; note: potency is the fitted concentration of half-maximal effect; nearly all actives have a fitted effect of over 55% in size
Results filed as inconclusive are left out. Activity calls are given as the source filed them. Calls come from the whole dose curve; as a rule, active = well fitted inhibition curve with a large enough effect in the repeat runs; inconclusive = weak or mixed curves; inactive = flat fitted curve, though single readings scatter.
Kindly supply the reported Potency values for the records listed here.

Ask: Request the reported Potency associated with `CCOC(=O)N1CCC(Nc2ccc(Cl)cc2N)CC1`
Reply: 7760 nM (active)

Ask: Request the reported Potency associated with `C[C@@H]1C[C@H]2[C@@H]3CCC4=CC(=O)C=C[C@]4(C)[C@@]3(F)[C@@H](O)C[C@]2(C)[C@@]1(O)C(=O)COC(=O)c1ccncc1`
Reply: 1230 nM (active)

Ask: Request the reported Potency associated with `C[N+](C)(CCOc1ccccc1)Cc1cccs1`
Reply: 123 nM (active)

----------
system: Tov112D; test: Primary qHTS to identify gynecologic anti-cancer compounds using libraries of approved drugs and bioactive compounds (AID 1345084); conditions: Gynecologic cancer cell panel viability, ATPlite luminescence, 48 h; series mostly up to 57.5 µM; note: nearly all actives have a fitted effect of over 55% in size
Inconclusive results are not listed. Calls of active or inactive are those of the source. Calls come from the whole dose curve; as a rule, active = well fitted cell-killing curve with a large enough effect; inconclusive = small, poorly fitted or top-dose-only effect, or effect the other way; inactive = flat fitted curve, though single readings scatter.
Could you please pick one outcome from this set? active, inactive

Ask: Assay result, entry `COc1ccc(/C(C)=C/C(=O)O)c(OC)c1` — outcome?
Reply: inactive

Ask: Assay result, entry `C/C(=N\O)[C@@H](C)NCC(C)(C)CN[C@H](C)/C(C)=N/O` — outcome?
Reply: inactive

Ask: Assay result, entry C[N+]1(CC2COC(c3ccccc3)(c3ccccc3)O2)CCCCC1 (stereo unspecified) — outcome?
Reply: inactive

Ask: Assay result, entry `C=CCOc1cc(Cl)ccc1C(=O)NCCN(CC)CC` — outcome?
Reply: inactive

Ask: Assay result, entry `CC(C)C(=O)OCc1cccc(OC(=O)[C@@H]2N3C(=O)[C@@H](NC(=O)Cc4ccccc4)[C@H]3SC2(C)C)c1` — outcome?
Reply: inactive

Ask: Assay result, entry CC(C)(C)NCC(O)COc1ccccc1OCC1CCCO1 (stereo unspecified) — outcome?
Reply: inactive

Ask: Assay result, entry `CCCC(=O)O[C@]1(C(=O)COC(=O)CC)CC[C@H]2[C@@H]3CCC4=CC(=O)CC[C@]4(C)[C@H]3[C@@H](O)C[C@@]21C` — outcome?
Reply: inactive

Ask: Assay result, entry `C[C@H]1NCc2cc(-c3ccc4c(=O)c(C(=O)O)cn(C5CC5)c4c3OC(F)F)ccc21` — outcome?
Reply: inactive

Ask: Assay result, entry `CCc1cc(S(=O)(=O)O)c2cc(C(C)C)cccc1-2` — outcome?
Reply: inactive

Ask: Assay result, entry `CC(C)(C)CC(=O)OCC(=O)[C@@]1(O)CC[C@H]2[C@@H]3CCC4=CC(=O)C=C[C@]4(C)[C@H]3[C@@H](O)C[C@@]21C` — outcome?
Reply: inactive

Ask: Assay result, entry `O=C1NC(=O)/C(=C/c2ccc3c(c2)OC(F)(F)O3)S1` — outcome?
Reply: inactive

Ask: Assay result, entry `C[C@]12CCC(=O)C=C1CC[C@@H]1[C@@H]2[C@@H](O)C[C@@]2(C)[C@H]1CC[C@]2(O)C(=O)COC(=O)CCC(=O)O` — outcome?
Reply: inactive

Ask: Assay result, entry `CCNC(=O)NCCCOc1cccc(CN2CCCCC2)c1` — outcome?
Reply: inactive

Ask: Assay result, entry CN(CC1(C)CCCO1)S(=O)(=O)c1ccc(Cl)c(S(N)(=O)=O)c1 (stereo unspecified) — outcome?
Reply: inactive

Ask: Assay result, entry `O=C(O)C(=O)Nc1cccc(-c2nn[nH]n2)c1` — outcome?
Reply: inactive

Ask: Assay result, entry `CCCCCCCCCCCCCCCCCCN(C)C` — outcome?
Reply: inactive

Ask: Assay result, entry `CC(C)(C)c1cc(C=O)cc(C(C)(C)C)c1O` — outcome?
Reply: inactive

Ask: Assay result, entry `CC(=O)N1CCN(c2ccc(O)cc2)CC1` — outcome?
Reply: inactive

Ask: Assay result, entry `CC(=O)N(c1onc(C)c1C)S(=O)(=O)c1ccc(N)cc1` — outcome?
Reply: inactive

Ask: Assay result, entry `CC(C)=CCNc1ncnc2c1ncn2[C@@H]1O[C@H](CO)[C@@H](O)[C@H]1O` — outcome?
Reply: active

Ask: Assay result, entry `CC(=O)O[C@H]1CC[C@@]2(C)C(=CC[C@@H]3[C@@H]2CC[C@]2(C)C(C(C)=O)=CC[C@@H]32)C1` — outcome?
Reply: inactive

Ask: Assay result, entry `COCCc1ccccn1` — outcome?
Reply: inactive

Ask: Assay result, entry `CC(C)C(C)(C)C(C)(C)C(C)(C)S` — outcome?
Reply: inactive

Ask: Assay result, entry `O=C1[C@@H]2[C@H]3CC[C@H](C3)[C@@H]2C(=O)N1CCCCN1CCN(c2ncccn2)CC1` — outcome?
Reply: inactive

Ask: Assay result, entry `CCOC(=O)NNc1nncc2ccccc12` — outcome?
Reply: inactive

Ask: Assay result, entry `Cc1cc(CCCOc2c(C)cc(-c3noc(C(F)(F)F)n3)cc2C)on1` — outcome?
Reply: inactive

----------
tested on: OV90; test: Primary qHTS to identify gynecologic anti-cancer compounds using libraries of approved drugs and bioactive compounds (AID 1345084); settings: Gynecologic cancer cell panel viability, ATPlite luminescence, 48 h; series mostly up to 57.5 µM; note: nearly all actives have a fitted effect of over 55% in size
Inconclusive results are not listed. Activity calls are given as the source filed them. Calls follow the shape of the dose curve; as a rule, active = well fitted cell-killing curve with a large enough effect; inconclusive = small, poorly fitted or top-dose-only effect, or effect the other way; inactive = flat fitted curve, though single readings scatter.
Could you please pick one outcome from this set? active, inactive

Ask: Assay result, entry CC1(C)S[C@@H]2[C@H](NC(=O)C(c3ccccc3)S(=O)(=O)O)C(=O)N2[C@H]1C(=O)O (some centres undefined) — outcome?
Reply: inactive

Ask: Assay result, entry `CCCCCOc1ccccc1/C(=C\SC)n1ccnc1` — outcome?
Reply: inactive

Ask: Assay result, entry CC(NN)c1ccccc1 (centres undefined) — outcome?
Reply: inactive

Ask: Assay result, entry `N#CC1(c2ccc(F)cc2)CCC(=O)CC1` — outcome?
Reply: inactive

Ask: Assay result, entry `CCOc1ncc(F)c(=O)[nH]1` — outcome?
Reply: inactive

Ask: Assay result, entry `CCCCCCCCCCCCCCCCCCNC(=O)OC1CCN(C(=O)OC[C@H](COC(=O)N(Cc2cccc[n+]2CC)C(=O)c2ccccc2OC)OC)CC1` — outcome?
Reply: active

Ask: Assay result, entry CC1c2ccccc2CN1NC(=O)c1ccc(Cl)c(S(N)(=O)=O)c1 (centres undefined) — outcome?
Reply: inactive

Ask: Assay result, entry `C#Cc1ccc(-c2ccccc2F)cc1` — outcome?
Reply: inactive

Ask: Assay result, entry CC(C)C(=O)Nc1cccc(C2CN3CCSC3=N2)c1 (centres undefined) — outcome?
Reply: inactive

Ask: Assay result, entry CC1CCCCN1CCCOC(=O)c1ccc(OC2CCCCC2)cc1 (centres undefined) — outcome?
Reply: inactive

Ask: Assay result, entry `O=C(Nc1ccc(Cl)cc1)Nc1ccc(Cl)c(C(F)(F)F)c1` — outcome?
Reply: active

Ask: Assay result, entry O=P(O)(O)OCC(O)CO (centres undefined) — outcome?
Reply: inactive

Ask: Assay result, entry CCOC(=O)NNc1ccc(N(CC)CC(C)O)nn1 (centres undefined) — outcome?
Reply: inactive

Ask: Assay result, entry `CC(C)(C)c1nnc(NS(=O)(=O)c2ccccc2)s1` — outcome?
Reply: inactive

Ask: Assay result, entry `COC(=O)c1ccc(NC(C)=O)cc1OC` — outcome?
Reply: inactive

Ask: Assay result, entry CCC(C(=O)NC(=O)NC(C)=O)c1ccccc1 (centres undefined) — outcome?
Reply: inactive

Ask: Assay result, entry `Brc1ccccc1-c1ccccc1` — outcome?
Reply: inactive

Ask: Assay result, entry CCC(=O)O[C@]1(C(=O)COC)[C@@H](C)C[C@H]2[C@@H]3CCC4=CC(=O)C=C[C@]4(C)C3(F)[C@@H](O)C[C@@]21C (some centres undefined) — outcome?
Reply: inactive

Ask: Assay result, entry `N#Cc1cc(NC(=O)C(=O)O)c(Cl)c(NC(=O)C(=O)O)c1` — outcome?
Reply: inactive

Ask: Assay result, entry `N=C(N)c1ccc(OCCCOc2ccc(C(=N)N)cc2)cc1` — outcome?
Reply: inactive

Ask: Assay result, entry `C[C@H](CN1CCCC1)C(=O)c1ccc(C(F)(F)F)cc1` — outcome?
Reply: inactive

Ask: Assay result, entry `CCOC(=O)C(=O)c1csc(NC=O)n1` — outcome?
Reply: inactive

Ask: Assay result, entry `O=C(c1ccccc1)c1ccccc1` — outcome?
Reply: inactive

Ask: Assay result, entry `Cc1cc(CCCOc2c(C)cc(-c3noc(C(F)(F)F)n3)cc2C)on1` — outcome?
Reply: inactive

Ask: Assay result, entry `Cc1ncc([N+](=O)[O-])n1C` — outcome?
Reply: inactive

Ask: Assay result, entry `C/C(=C1\CCOC(=O)S1)N(C=O)Cc1cnc(C)nc1N` — outcome?
Reply: inactive

Ask: Assay result, entry `CC(=O)CC/C=C(\C)CC/C=C(\C)CC/C=C(\C)CCC=C(C)C` — outcome?
Reply: inactive

Ask: Assay result, entry `CN(C)CCN1CCN(c2cccc(Cl)c2)C1=O` — outcome?
Reply: inactive

Ask: Assay result, entry COc1cc(C(=O)NC2CCCNC2)cc(OC)c1OC (centres undefined) — outcome?
Reply: inactive

Ask: Assay result, entry `Cc1ccc(-c2ccccc2C#N)cc1` — outcome?
Reply: inactive

Ask: Assay result, entry `O=[N+]([O-])c1ccc(-c2nc(-c3ccc(F)cc3)c(-c3ccncc3)[nH]2)cc1` — outcome?
Reply: inactive

Ask: Assay result, entry `CC(=O)OCC(=O)Nc1cc(C#N)cc(NC(=O)COC(C)=O)c1Cl` — outcome?
Reply: inactive

Ask: Assay result, entry `CCN(CC)CC(=O)Oc1ccc(NC(C)=O)cc1` — outcome?
Reply: inactive

Ask: Assay result, entry `Cc1cccc(C)c1NC(=O)c1ccc(N)cc1` — outcome?
Reply: inactive
